type: in vivo, rat; conditions: PM/P (polyI:C+maoto vs polyI:C), 4h
# true (1) = log2FC of plasma level below -0.7 (exclusive); false (0) = log2FC of plasma level at/above -0.7

>>> assigned_class("CCCCC/C=C\\C\\C=C/C=C/C=C/[C@@H](SCC(NC(C)=O)C(=O)O)[C@@H](O)CCCC(=O)O (some centres unmarked)")
"true (1)"
>>> assigned_class("CCCCC[C@@H](/C=C/C=C\\CCCCCCCC(=O)O)OO")
"true (1)"
>>> assigned_class("CCCCCC1OC1C/C=C\\C/C=C\\C/C=C\\CCCC(=O)O (centres unmarked)")
"false (0)"
>>> assigned_class("CC/C=C\\C/C=C\\C/C=C\\CC(O)/C=C/C=C\\C/C=C\\CCC(=O)O (centres unmarked)")
"false (0)"
>>> assigned_class("CC/C=C\\C/C=C\\C=C\\C(O)C/C=C\\C/C=C\\C/C=C\\CCC(=O)O (centres unmarked)")
"false (0)"
>>> assigned_class("CCCCCC(=O)CC[C@H]1[C@H](O)CC(=O)[C@@H]1C/C=C\\CCCC(=O)O [13,14-dihydro-15-keto-PGE2]")
"false (0)"
>>> assigned_class("CCCCC[C@H](O)/C=C/[C@H]1[C@H](O)CC(=O)[C@H]1C/C=C\\CCCC(=O)O")
"true (1)"
